Each recorded value in this set is attributed to PubChem BioAssay (NCI).

system: SN12C renal; test: NCI-60 one-dose screen, 48 h (100 = growth as untreated, 0 = no growth, -100 = all killed); conditions: 10 µM unless noted
About 83,000 compounds went through this panel and 20% of them were active in at least one assay; those are over-represented in the sample as a whole. Activity calls are given as the source filed them. How the source made its calls: active means growth percent below 10; inactive means the rest.
measured_parameter: growth

Each of the following entries comes with a recorded value; kindly state growth for each.
1. CC(C)(C)c1nc(-c2ccc(O)c(O)c2)cs1
2. Cc1ccc2[nH]cc(-c3nc(-c4cn(C)c5ncccc45)cs3)c2c1
3. Nc1nc2c3ccncc3cc(-c3cccc(Cl)c3)c2c2cnccc12

Ans:
1: 59.5% (inactive); 2: 87.8% (inactive); 3: 36.4% (inactive)

---

system: NCI-H322M lung; experiment: NCI-60 one-dose screen, 48 h; conditions: 10 µM unless noted
The panel holds about 83,000 compounds, 20% with a hit somewhere; the sample as a whole holds those more often. Calls of active or inactive are those of the source. How the source made its calls: active means growth percent below 10; inactive means the rest.
Field 'call' accepts 1.0 for active, 0.0 for inactive

molecule=N#CCCCCCn1c2ccccc2c2c3c(c4c5ccccc5n(CCCCCC#N)c4c21)C(=O)N(O)C3=O assigned_label=0.0

Q: Name the outcome recorded for Nc1c(C(=O)Nc2c(Cl)cccc2Cl)sc2nc3c(cc12)C(=O)CCC3 in the assay.
Ans: 0.0

Q: In this assay, the call recorded for COc1ccc(-c2n/c(=C\c3c(O)[nH]c4ccc(OC)cc34)cc3c2=Nc2ccccc2-3)cc1 was what?
Ans: 0.0

---

tested on: SNB-19 CNS; assay: NCI-60 one-dose screen, 48 h; conditions: 10 µM unless noted
The panel holds about 83,000 compounds, 20% with a hit somewhere; the sample as a whole holds those more often. Active and inactive are the calls of the source. How the source made its calls: active means growth percent below 10; inactive means the rest.
A correct response names exactly one class from Y (active), N (inactive)

# example entries with known answers
molecule=CCCCC[C@H]1CC=C2C(=O)C(Cl)=C[C@@H]2CC=CCCCC(=O)O[C@@H](CCCCC)CC=C2C(=O)C(Cl)=C[C@@H]2CC=CCCCC(=O)O[C@@H](CCCCC)CC=C2C(=O)C(Cl)=C[C@@H]2CC=CCCCC(=O)O1 experimental_system="SNB-19 CNS" assigned_label=N
molecule="C/C(=N\\NC(=O)C(C)SC(C)C(=O)N/N=C(\\C)c1cccnc1)c1cccnc1 (configuration not stated)" experimental_system="SNB-19 CNS" assigned_label=N
molecule=CC(=O)c1c(C)[nH]c(-c2nc3ccc(N4CCN(C)CC4)cc3[nH]2)c1-c1ccc2c(c1)OCCO2 experimental_system="SNB-19 CNS" assigned_label=N
molecule=CC1(C)C=CC[C@]2(C)[C@H]3CC[C@@H]4[C@H]5[C@H](C(=O)/C=C/c6cccnc6)CC[C@]5(CO)CC[C@@]4(C)[C@]3(C)CC[C@@H]12 experimental_system="SNB-19 CNS" assigned_label=Y
molecule="Cc1ccsc1-c1ccc2c(c1)COC2(CCCN(C)C)c1ccc(F)cc1 (configuration not stated)" experimental_system="SNB-19 CNS" assigned_label=N
molecule=CC(C)(C)c1ccc(OP(=S)(N/N=C/c2ccccc2O)Oc2ccc(C(C)(C)C)cc2)cc1 experimental_system="SNB-19 CNS" assigned_label=N

Let us examine a further case.
Q: Field: outcome | Entry: COC(=O)[C@]12CC[C@@H](C)[C@H](C)[C@@H]1C1=CC[C@@H]3[C@@](C)(CC#N)C4=C(C[C@@]3(C)[C@]1(C)CC2)OC[C@]4(C)C=O
Ans: Y

---

test system: OVCAR-4 ovarian; experiment: NCI-60 one-dose screen, 48 h; details: 10 µM unless noted
About 83,000 compounds went through this panel and 20% of them were active in at least one assay; those are over-represented in the sample as a whole. Calls of active or inactive are those of the source. The calls were made as follows: active = growth percent below 10; inactive = the rest.
Please answer using one outcome listed in true (1) = active, false (0) = inactive

Q: Outcome logged for Cc1nn(-c2ccc(Br)cc2)c2nc3[nH]c(=O)[nH]c(=O)c3nc12 in this assay:
Ans: false (0)

Q: Hi, sorry to bother you, what did the test record for NC(Cc1ccc(O)cc1)C(=O)N/N=C/c1ccccc1O (stereo not given) ?
Ans: false (0)

Q: Recorded test call requested for C=C(C)[C@@H]1CC[C@]2(c3nnc(-c4ccncc4)o3)CC[C@]3(C)[C@H](CC[C@@H]4[C@@]5(C)CCC(=O)NC(C)(C)[C@@H]5CC[C@]43C)[C@@H]12
Ans: false (0)

---

test system: RPMI-8226 leukemia; assay: NCI-60 one-dose screen, 48 h; details: 10 µM unless noted
This is part of a sample that, as a whole, favours compounds with a hit. Of some 83,000 tested, about 20% had one in any assay. Activity calls are given as the source filed them. The calls were made as follows: active = growth percent below 10; inactive = the rest.
Thanks in advance; please answer with one of these: active, inactive

Look over these answered cases.
compound=CC(=O)c1c(C)[nH]c(-c2nc3ccc(N4CCN(C)CC4)cc3[nH]2)c1-c1ccc2c(c1)OCCO2 assigned_label=active
compound=N=C(N)N=Nc1ccc(O)cc1 assigned_label=inactive
compound=O=C(N/N=C\c1ccccc1O)C1CC1 assigned_label=inactive
compound=N#Cc1cnc2cc(OC[C@@H](O)CO)c(NC(=O)CC3CSSC3)cc2c1Nc1ccc(OCc2cccc(F)c2)c(Cl)c1 assigned_label=active
compound=COC(=O)CNc1nc(N(C)O)nc(N(C)O)n1 assigned_label=inactive
compound=Cc1cc(Cl)nc(N(CCNc2ccnc3cc(Cl)ccc23)Cc2ccco2)n1 assigned_label=active

Q: Look up the recorded call for Cc1cc(C)n(Cc2cc(C(C)(C)C)cc(C(C)(C)C)c2)c(=O)c1C#N in this test.
Ans: inactive

Q: Could you check what this test reported for CC(C)=CCC[C@](C)(O)[C@H]1CC[C@]2(C)[C@@H]1CC[C@@H]1[C@@]3(C)C/C(=C/c4ccc(Br)cc4)C(=O)C(C)(C)[C@@H]3CC[C@]12C ?
Ans: inactive

Q: I would be grateful if you could indicate the recorded call for Nc1c2c(nc3ccc(Cl)cc13)CC(c1ccc(O)cc1)CC2=O (centres undefined) .
Ans: inactive

Q: Please state the recorded outcome for this compound: Cc1cc(Cl)nc(N(CCCNc2ccnc3cc(Cl)ccc23)Cc2ccco2)n1
Ans: active

Q: Dear colleague, could you share the recorded outcome for Cc1ccnc2c(OCc3ccccc3)cccc12 when you have a moment?
Ans: inactive

Q: Could you please tell me the result logged for O=C(N/N=C/c1ccccc1SSc1ccccc1/C=N/NC(=O)c1ccccc1)c1ccccc1 in this assay?
Ans: inactive

Q: // return assay outcome for O=C(N/N=C\c1c(O)ccc2ccccc12)C1CC1
Ans: inactive

Q: Per the assay record, what outcome was assigned to O=C(/C=C/c1cccc2ccccc12)Nc1ncc(Cc2ccccc2)s1 ?
Ans: active

Q: Recorded test outcome, item Brc1ccc(Cn2nnnc2-c2ccn(-c3ccccc3)n2)cc1
Ans: inactive

Q: Per the records of this test, what outcome belongs to NC1(N)C=CC2=C(C=C1)C1(N)C3=C(C=CC(N)(N)C=C3)N2C2(N)C3=C(C=CC(N)(N)C=C3)N1C1=C2C=CC(N)(N)C=C1 ?
Ans: inactive

---

What growth was measured for each of the following?
system: HS 578T breast; test: NCI-60 one-dose screen, 48 h (100 = growth as untreated, 0 = no growth, -100 = all killed); details: 10 µM unless noted
About 83,000 compounds went through this panel and 20% of them were active in at least one assay; those are over-represented in the sample as a whole.
Numbers only, in %.

molecule="CC(=O)NC1=C(C#N)C(c2ccccc2Cl)c2c(ccc3ccccc23)O1 (stereo not given)" measured_parameter=growth reported=74.9

Would you mind listing growth for each of the following molecules?
1. O=S(=O)(NCCCNc1cc(-c2cn(-c3ccccc3)nc2-c2cccc(O)c2)ccn1)c1ccc(F)cc1
2. COc1cnc2c(c1)C(=O)c1c-2n(CCCNC(C)C)c(=O)c2cc([N+](=O)[O-])ccc12
3. CCCCCCCCNc1cccc2c1C(=O)c1ccccc1C2=O
4. COCCNC1=C(Cl)C(=O)c2ccccc2C1=O

Ans:
[24.3, -31, 95.7, 105]

---

Record form. Attribute: growth. Fill in for each entry.
system: ACHN renal; assay: NCI-60 one-dose screen, 48 h (100 = growth as untreated, 0 = no growth, -100 = all killed); settings: 10 µM unless noted
This is part of a sample that, as a whole, favours compounds with a hit. Of some 83,000 tested, about 20% had one in any assay.
Numbers only, in %.

Below, each entry is followed by its recorded growth result.
compound=CCN(CC)CCCCCNc1cc(OC(=O)c2ccccc2)cc2cccnc12 unit_label=% reported=96.6
compound=Cn1cc(-c2csc(-c3cn(CCNC(=O)OC(C)(C)C)c4ccccc34)n2)c2cccnc21 unit_label=% reported=74.3
compound=O=C1C=Cc2ncccc2C1=O unit_label=% reported=76.1
compound="CCC(c1ccc(OC)cc1)C(CC)c1ccc(O)c(CN2CCCCC2)c1 (stereo not given)" unit_label=% reported=82.3
compound=CC(C)=CCC/C(C)=C/CC/C(C)=C/CSC[C@H](NC(=O)CCCCCN1CCN(C)CC1)C(=O)NC1CCCCCC1 unit_label=% reported=66
compound=S=c1[nH]nc2ccccn12 unit_label=% reported=102
compound=Cn1c2ccccc2c2c3c(c4c5cccnc5[nH]c4c21)C(=O)N(O)C3=O unit_label=% reported=17.8
compound="O=C1C=C(C(O)c2ccc(O)cc2)C(=O)c2ccccc21 (stereo not given)" unit_label=% reported=92.7
compound=CCCCCCCN(CCCCCCC)C(=N)c1ccnc2ccccc12 unit_label=% reported=-81.9
compound="CCCCCC1CCCCN1C(=O)OCC (stereo not given)" unit_label=% reported=98.8

Provide growth values for the following items, in order.
1. Cc1nnc2nc(N)[nH]n2c1=O
2. Cc1ccc(/C=C(\C#N)c2cc3ccccc3n2C)cc1
3. C=C(C)[C@@H]1CC[C@]2(CN)CC[C@]3(C)[C@H](CC[C@@H]4[C@@]5(C)CCC(=O)NC(C)(C)[C@@H]5CC[C@]43C)[C@@H]12
4. Cc1ccc(-c2nn(Cc3cn(-c4cc(C)nc5ccccc45)nn3)c3ncnc(N)c23)cc1
5. CCCCn1c(-c2ccc(O)cc2)cn2c3c(=O)[nH]c(=O)n(C)c3nc12
6. COc1cc2nc(Cl)nc(Nc3cccc(C(=O)/C=C/c4ccc(Cl)cc4)c3)c2cc1OC
7. CN(C)c1ccc(-c2ccc(-c3ccc(C(=N)N)c(F)c3)s2)cc1

Ans:
1. 109
2. 42.9
3. 69.1
4. 31.9
5. 92.6
6. 56
7. -95.8
